assay: amyloid nucleation score (Sup35N fusion, yeast selection) (log enrichment); library NNK1; higher = more nucleation; inactive = no reads after selection;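 also: zero at mode of non-aggregating sequences after 7 days selection at 30°C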
Reported amyloid nucleation score maps to class as: low class = under -0.08, middle class = from -0.08 up to 0.6, high class = 0.6 and over

               substance  class_assignment
 0  DCIACRECSMTSKLLGGLGT        high class
 1  TWRLDIFGGRRGRVASRKKW      middle class
 2  LPCMGKLIYVCRSRLEREQS      middle class
 3  NLTTPIWDRSYCSYMNMMNS      middle class
 4        KPDRQVANFRDWFG         low class
 5  NLGVVSIHDRHRYVAKVYSS        high class
 6  GNNFFIIVAVLTQKNSAVRV        high class
 7             ICHGAEHNV         low class
 8  RVLNMFYVMNCAIFWVVEAC        high class
 9  VLQDSGIAAYKYSGSCDCSF         low class
10  FNDQVQTWWLSYFEAPRYFK         low class
11                SSSYDY         low class
12  RCEVESIRNGLAKAGSVTMR      middle class
13  GRYVSSWFWFRFMQVQANTN      middle class
14  FISNIFKMKMATQSGGLGVR         low class
15  GRLCCRPVWYTISCKLWVNE        high class
16       RVWCLRTLKCLIAAR      middle class
17      SPPTMIETGTHKASSH      middle class
18             GVTVKGASS         low class
19              ASCVKYVW        high class
20  TLLYICSRNTKFNGLMWLGL        high class
21  VLLACGIFKDPTSCFCMLSL         low class
22  STCSGISFVCHSTIIIKVTF        high class
23    FRVNCVAWDASGTYTYGR      middle class
24          RGNRHTSGNVTL      middle class

###

test: amyloid nucleation score (Sup35N fusion, yeast selection) (log enrichment); library NNK1; higher = more nucleation; inactive = no reads after selection
READOUT_KIND: amyloid nucleation score

In [3]: df
Out[3]:
              substance  reported_measurement
0    SPGAWKHSNPDGDCNGLA                 0.525
1  CQDGLDNLNCGAMVYFVVGD                  2.25
2  VWCRNAVDTMLIPMCTTPGY                 0.372
3    SIGCIYRSSKSGDVSISY                -0.057
4                AGVAGL                -0.661
5               GYRGLYY                  1.38
6  ICIREPTNESLAQLSDGVIR                  2.06
7  GLQKSVEGNYMTFLSFSLAM                  5.03
8  VVMRPIFYGNSWLVRPLRNM                -0.272
9        CTNATVPASSTERV                  1.55
